target: soluble HIV 89.6 gp140 envelope protein (cleaved gp140 preparation) (HIV 89.6 (Clade B) primary isolate), Q73372; experiment: SPR, peptide over directly immobilised 89.6 gp140, no CD4
pKd: −log10 of the molar value.
TEST_READOUT: pKd

{"columns": ["BINDER", "TEST_READOUT", "MEASURED"],
 "data": [
  ["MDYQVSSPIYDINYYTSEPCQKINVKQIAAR (modifications not checked) [CCR5-D1 peptide]", "pKd", 6.00]
]}
